experiment: method code SF-HPLC, from DOI: 10.1016/s0968-0896(00)00015-8, PMID: 10819159; conditions: pH 7.4
REPORTED_ENDPOINT: logD

A = CC(C)(C)C(=O)OCN(Nc1ccc([N+](=O)[O-])cc1Oc1ccccc1)S(C)(=O)=O
B = Nc1ccc(S(=O)(=O)N(COC(=O)c2ccccc2)c2cncs2)cc1
Which value of logD is greater, the one for A or the one for B ? Answer = label. A

====

test: method code SF-HPLC, from DOI: 10.1016/s0968-0896(00)00015-8, PMID: 10819159; details: pH 7.4
REPORTED_ENDPOINT: logD

Answered examples (5):
CCOC(=O)CNC(=O)OCN(c1ccc([N+](=O)[O-])cc1Oc1ccccc1)S(C)(=O)=O    2.28
CS(=O)(=O)N(COC(=O)c1ccccc1)c1ccc([N+](=O)[O-])cc1Oc1ccccc1    3.97
COC(=O)C1CCCN1C(=O)OCN(c1ccc([N+](=O)[O-])cc1Oc1ccccc1)S(C)(=O)=O (stereo not drawn)    2.85
Cc1noc(N(COC(=O)c2ccccc2)S(=O)(=O)c2ccc(N)cc2)c1C    2.83
CCOC(=O)CN(C)C(=O)OCN(c1ccc([N+](=O)[O-])cc1Oc1ccccc1)S(C)(=O)=O    2.2

a = Cc1cc(C)nc(N(COC(=O)c2ccccc2)S(=O)(=O)c2ccc(N)cc2)n1
b = Nc1ccc(S(=O)(=O)N(COC(=O)c2ccccc2)c2ncccn2)cc1
Which value of logD is greater, the one for a or the one for b ? Answer = label. a
